Tested on: Bovine viral diarrhea virus 1
Assay: Antiviral activity against BVDV infected in MDBK cells assessed as inhibition of virus-induced cytopathogenicity after 3 to 4 days by MTT assay
Type: functional, organism-based
Settings: Bovine viral diarrhea virus isolates and strains
Readings of EC50 for the listed compounds

# Compound, EC50
measured = [
    ("COc1ccc(Cn2nnc3cc(Cl)c(Cl)cc32)cc1", "> 100 µM"),
    ("COc1cc(/C=C/C(=O)OCCn2nnc3ccccc32)cc(OC)c1OC", "> 100 µM"),
    ("Nc1ccc(-n2nc3ccccc3n2)cc1", "35 µM"),
    ("Cc1ccc(C)c(OCCCC(C)(C)C(=O)O)c1", "90 µM"),
]

Recall and state the measured EC50 for `NCCn1nnc2ccccc21` .
> 100 µM

Return EC50 (reported value) for this compound: `O=C(O)COc1ccc(-n2nc3ccccc3[n+]2[O-])cc1`
> 100 µM

Determine its reported EC50: `COc1cc(C(=O)OCCCn2nc3ccccc3n2)cc(OC)c1OC`
> 100 µM

Could you please provide reported EC50 for `Clc1ccc(Cn2nc3cc(Cl)c(Cl)cc3n2)cc1` ? Thanks!
> 100 µM

Name the recorded EC50 of the item `COc1cc(C(=O)OCCn2nnc3ccccc32)cc(OC)c1OC` in your answer.
> 100 µM
